Values were extracted from patent US5314901A.

- assay system: muscarinic receptors (3H-QNB), cerebral cortex
- assay notes: Radio ligand binding: displacement of the muscarinic antagonist 3H-Quinuclidinyl Benzilate (3H-QNB) from rat cerebral cortex membranes
- recorded conditions: displacement of 0.27 nM 3H-QNB (muscarinic antagonist), 37° C., 30 min
Counter-ions that a name gives are not always drawn.
endpoint label: pIC50
Would you please state pIC50, meaning minus log10 of the concentration in mol/L, as a bare number?

>  <molecule>
CON=C(F)C1=CCCNC1 [E 8, oxalate salt]

>  <endpoint label>
pIC50

>  <reading>
5.55

$$$$
>  <molecule>
CON=C(C#N)C1=CCCNC1 [E 10]

>  <endpoint label>
pIC50

>  <reading>
5.94

$$$$

Could you now look at the following molecule, please?
Q) For the molecule CON=C(Cl)C1=CCCNC1 [E 9, oxalate salt] , what pIC50 is on record?
A) 5.33
